Measured values drawn from PubChem BioAssay AID2060901 for this set.

Reported viability, T/C is given for each of the following compounds.
- Tested on: 422866-222-R5-J1-PDC complex spheroids viability
- test.name: Anticancer human tumor 422866-222-R5-J1-PDC patient-derived pancreatic adenocarcinoma cell line growth inhibition [RAS]
- applied.conditions: second compound 0.3 µM; first compound 1 µM; stronger effect = lower value
Answer in %, number only, no unit symbol.

CCN1CCN(Cc2ccc(Nc3ncc(F)c(-c4cc(F)c5nc(C)n(C(C)C)c5c4)n3)nc2)CC1 + CCn1c(-c2cc(N3CCN(C)CC3)cnc2C(C)OC)c2c3cc(ccc31)-c1csc(n1)CC(NC(=O)C1CC1C)C(=O)N1CCCC(N1)C(=O)OCC(C)(C)C2 = 33.5
Cc1nc(N2CCC3(CC2)COC(C)C3N)c(CO)nc1Sc1ccnc(N)c1Cl (centres undefined) + CCn1c(-c2cc(N3CCN(C)CC3)cnc2C(C)OC)c2c3cc(ccc31)-c1csc(n1)CC(NC(=O)C1CC1C)C(=O)N1CCCC(N1)C(=O)OCC(C)(C)C2 = 18.1
CC(=O)OC12COC1CC(O)C1(C)C(=O)C(O)C3=C(C)C(OC(=O)C(O)C(NC(=O)OC(C)(C)C)c4ccccc4)CC(O)(C(OC(=O)c4ccccc4)C21)C3(C)C (centres undefined) + CCn1c(-c2cc(N3CCN(C)CC3)cnc2C(C)OC)c2c3cc(ccc31)-c1csc(n1)CC(NC(=O)C1CC1C)C(=O)N1CCCC(N1)C(=O)OCC(C)(C)C2 = 17.8

Next compound, please.
// fetch viability, T/C; item: Nc1ccn(C2OC(CO)C(O)C2(F)F)c(=O)n1 (centres undefined) + CCn1c(-c2cccnc2C(C)OC)c2c3cc(ccc31)N1CCOC(CC(NC(=O)C(C(C)C)N(C)C(=O)C3(F)CCN(C(=O)C#CC(C)(C)N(C)C)CC3)C(=O)N3CCCC(N3)C(=O)OCC(C)(C)C2)C1 ; system: 422866-222-R5-J1-PDC complex spheroids viability
11.4

----------
Reported viability, T/C is given for each of the following compounds.
- System: 422866-222-R5-J1-PDC complex spheroids viability
- test.name: Anticancer human tumor 422866-222-R5-J1-PDC cell line growth inhibition [RAS];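 note: spheroids exposed to compounds for 7 days; 100% = DMSO vehicle control viability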
- applied.conditions: second compound 1 µM; first compound 0.003 µM; stronger effect = lower value
Answer in %, number only, no unit symbol.

Here's what some known entries look like.
CC1(C)CCC(Nc2ncc(C(F)(F)F)c(-c3c[nH]c4c(P(C)(C)=O)c(C#N)ccc34)n2)CN1 (centres undefined) + C=CC(=O)N1CCN(c2nc(OCC3CCCN3C)nc3c(F)c(-c4nc(N)cc(C)c4C(F)(F)F)c(Cl)cc23)C(C)C1 = 22.3
CCc1c2c(nc3ccc(O)cc13)-c1cc3c(c(=O)n1C2)COC(=O)[C@]3(O)CC + C#Cc1c(F)ccc2cc(O)cc(-c3ncc4c(N5CC6CCC(C5)N6)nc(OCC56CCCN5CC(F)C6)nc4c3F)c12 = 35.9
CC1(C)CCC(Nc2ncc(C(F)(F)F)c(-c3c[nH]c4c(P(C)(C)=O)c(C#N)ccc34)n2)CN1 (centres undefined) + C#Cc1c(F)ccc2cc(O)cc(-c3ncc4c(N5CC6CCC(C5)N6)nc(OCC56CCCN5CC(F)C6)nc4c3F)c12 = 44.1

Next compound, please.
// fetch viability, T/C; item: CCc1c2c(nc3ccc(O)cc13)-c1cc3c(c(=O)n1C2)COC(=O)[C@]3(O)CC + C=CC(=O)N1CCN(c2nc(OCC3CCCN3C)nc3c(F)c(-c4nc(N)cc(C)c4C(F)(F)F)c(Cl)cc23)C(C)C1 ; system: 422866-222-R5-J1-PDC complex spheroids viability
16

----------
Reported viability, T/C is given for each of the following compounds.
- Test system: 422866-222-R5-J1-PDC complex spheroids viability
- test.name: Anticancer human tumor 422866-222-R5-J1-PDC cell line growth inhibition [RAS];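 note: spheroids exposed to compounds for 7 days; 100% = DMSO vehicle control viability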
- applied.conditions: second compound 0.03 µM; first compound 0.316 µM; stronger effect = lower value
Answer in %, number only, no unit symbol.

Please indicate viability, T/C recorded for C=CC(=O)Nc1cc(Nc2nccc(-c3cn(C)c4ccccc34)n2)c(OC)cc1N(C)CCN(C)C + CCn1c(-c2cc(N3CCN(C)CC3)cnc2C(C)OC)c2c3cc(ccc31)-c1csc(n1)CC(NC(=O)C1CC1C)C(=O)N1CCCC(N1)C(=O)OCC(C)(C)C2
15.1

Please indicate viability, T/C recorded for C[C@@H](NC(=O)c1ncnc(N)c1Cl)c1ncc(C(=O)Nc2cc(C(F)(F)F)c(Cl)cn2)s1 + CCn1c(-c2cccnc2C(C)OC)c2c3cc(ccc31)N1CCOC(CC(NC(=O)C(C(C)C)N(C)C(=O)C3(F)CCN(C(=O)C#CC(C)(C)N(C)C)CC3)C(=O)N3CCCC(N3)C(=O)OCC(C)(C)C2)C1
22.7

Please indicate viability, T/C recorded for C=CC(=O)Nc1cc(Nc2nccc(-c3cn(C)c4ccccc34)n2)c(OC)cc1N(C)CCN(C)C + CCn1c(-c2cccnc2C(C)OC)c2c3cc(ccc31)N1CCOC(CC(NC(=O)C(C(C)C)N(C)C(=O)C3(F)CCN(C(=O)C#CC(C)(C)N(C)C)CC3)C(=O)N3CCCC(N3)C(=O)OCC(C)(C)C2)C1
15.9

Please indicate viability, T/C recorded for CCN1CCN(Cc2ccc(Nc3ncc(F)c(-c4cc(F)c5nc(C)n(C(C)C)c5c4)n3)nc2)CC1 + CCn1c(-c2cccnc2C(C)OC)c2c3cc(ccc31)N1CCOC(CC(NC(=O)C(C(C)C)N(C)C(=O)C3(F)CCN(C(=O)C#CC(C)(C)N(C)C)CC3)C(=O)N3CCCC(N3)C(=O)OCC(C)(C)C2)C1
26.7

----------
- Tested on: 422866-222-R5-J1-PDC complex spheroids viability
- test.name: Anticancer human tumor 422866-222-R5-J1-PDC cell line growth inhibition [RAS];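 note: spheroids exposed to compounds for 7 days; 100% = DMSO vehicle control viability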
- applied.conditions: second compound 0.03 µM; first compound 10 µM; stronger effect = lower value
- Source text: RAS pathway inhibitors in Combinations in Complex Spheroids A high-throughput screen of multi-cell type tumor spheroids was designed to identify active combinations of RAS pathway inhibitors and targeted small molecules. Complex spheroids include a stromal component modeled by human endothelial cells (HUVEC) and fibroblasts modeled by human mesenchymal stem cells (MSCs). […] Compounds. […] If the clinical Cmax for an agent had not been determined, the highest concentration tested was 10 microM. […]
Entries whose viability, T/C is below 20% take 1; entries at or above 20% take -1.

Does this compound meet the criterion viability, T/C < 20%? CC(Nc1ccc2c(c1)OCCn1cc(N3C(=O)OCC3C(F)F)nc1-2)C(N)=O (stereo not drawn) + CCn1c(-c2cccnc2C(C)OC)c2c3cc(ccc31)N1CCOC(CC(NC(=O)C(C(C)C)N(C)C(=O)C3(F)CCN(C(=O)C#CC(C)(C)N(C)C)CC3)C(=O)N3CCCC(N3)C(=O)OCC(C)(C)C2)C1
1

Does this compound meet the criterion viability, T/C < 20%? CC1(O)CCCC1n1c(=O)c(C(F)F)cc2cnc(NC3CCN(S(C)(=O)=O)CC3)nc21 (stereo not drawn) + CCn1c(-c2cc(N3CCN(C)CC3)cnc2C(C)OC)c2c3cc(ccc31)-c1csc(n1)CC(NC(=O)C1CC1C)C(=O)N1CCCC(N1)C(=O)OCC(C)(C)C2
-1

Does this compound meet the criterion viability, T/C < 20%? Cc1nc(N2CCC3(CC2)COC(C)C3N)c(CO)nc1Sc1ccnc(N)c1Cl (stereo not drawn) + CCn1c(-c2cccnc2C(C)OC)c2c3cc(ccc31)N1CCOC(CC(NC(=O)C(C(C)C)N(C)C(=O)C3(F)CCN(C(=O)C#CC(C)(C)N(C)C)CC3)C(=O)N3CCCC(N3)C(=O)OCC(C)(C)C2)C1
1

Does this compound meet the criterion viability, T/C < 20%? CCC(CC)c1cc(NC2CCC(N)C2)n2nccc2n1 (stereo not drawn) + CCn1c(-c2cc(N3CCN(C)CC3)cnc2C(C)OC)c2c3cc(ccc31)-c1csc(n1)CC(NC(=O)C1CC1C)C(=O)N1CCCC(N1)C(=O)OCC(C)(C)C2
-1

Does this compound meet the criterion viability, T/C < 20%? C[C@@H](NC(=O)c1ncnc(N)c1Cl)c1ncc(C(=O)Nc2cc(C(F)(F)F)c(Cl)cn2)s1 + CCn1c(-c2cc(N3CCN(C)CC3)cnc2C(C)OC)c2c3cc(ccc31)-c1csc(n1)CC(NC(=O)C1CC1C)C(=O)N1CCCC(N1)C(=O)OCC(C)(C)C2
-1

Does this compound meet the criterion viability, T/C < 20%? CC(=O)OC12COC1CC(O)C1(C)C(=O)C(O)C3=C(C)C(OC(=O)C(O)C(NC(=O)OC(C)(C)C)c4ccccc4)CC(O)(C(OC(=O)c4ccccc4)C21)C3(C)C (stereo not drawn) + CCn1c(-c2cccnc2C(C)OC)c2c3cc(ccc31)N1CCOC(CC(NC(=O)C(C(C)C)N(C)C(=O)C3(F)CCN(C(=O)C#CC(C)(C)N(C)C)CC3)C(=O)N3CCCC(N3)C(=O)OCC(C)(C)C2)C1
-1

Does this compound meet the criterion viability, T/C < 20%? CC(Nc1ccc2c(c1)OCCn1cc(N3C(=O)OCC3C(F)F)nc1-2)C(N)=O (stereo not drawn) + CCn1c(-c2cc(N3CCN(C)CC3)cnc2C(C)OC)c2c3cc(ccc31)-c1csc(n1)CC(NC(=O)C1CC1C)C(=O)N1CCCC(N1)C(=O)OCC(C)(C)C2
1
